- subject-of-test: UniProt Q9QYN8
- Sequence (Q9QYN8 whole entry): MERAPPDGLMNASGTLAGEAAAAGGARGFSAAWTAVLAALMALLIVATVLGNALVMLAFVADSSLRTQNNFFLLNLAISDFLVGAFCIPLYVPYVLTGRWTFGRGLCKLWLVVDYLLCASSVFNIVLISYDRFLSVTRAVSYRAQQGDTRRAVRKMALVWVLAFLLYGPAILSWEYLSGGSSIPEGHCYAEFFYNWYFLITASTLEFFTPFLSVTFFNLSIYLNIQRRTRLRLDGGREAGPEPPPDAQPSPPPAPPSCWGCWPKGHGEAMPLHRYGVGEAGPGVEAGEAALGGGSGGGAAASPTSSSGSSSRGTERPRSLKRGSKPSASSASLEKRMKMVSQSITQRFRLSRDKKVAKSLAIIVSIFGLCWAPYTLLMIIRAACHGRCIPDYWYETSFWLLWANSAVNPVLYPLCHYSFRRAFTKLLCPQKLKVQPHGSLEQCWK
- assay-explanation: Displacement of [3H]N-alpha-methylhistamine from rat cloned H3 receptor
Response field class: string, computed from recorded Ki by ranges bin 1 = under 0.9 nM, bin 2 = from 0.9 nM up to 30 nM, bin 3 = 30 nM and over

The following compounds have reported results that may help.
CCN1CCc2ccc(OCCCN3CCCCC3)cc2C1 : bin 1
CC(C)NC(=O)N1CCc2ccc(OCCCN3CCCCC3)cc2C1 : bin 3
CCN1CCCc2cc(OCCCN3CCCCC3)ccc2C1 : bin 1
CC(C)N1CCc2ccc(OCCCN3CCCCC3)cc2CC1 : bin 2

Lab note: which band did `CC(C)NC(=O)N1CCCc2cc(OCCCN3CCCCC3)ccc2C1` land in?
bin 3

Lab note: which band did `c1cc2c(cc1OCCCN1CCCCC1)CCN(CC1CCCCC1)CC2` land in?
bin 2

Lab note: which band did `CC(=O)N1CCc2ccc(OCCCN3CCCCC3)cc2CC1` land in?
bin 3

Lab note: which band did `CCN1CCc2ccc(OCCCN3CCCCC3)cc2CC1` land in?
bin 2

* * *

- subject-of-test: Histamine H3 receptor (Homo sapiens)
- assay-explanation: Displacement of [3H]N-alpha-methylhistamine from human cloned H3 receptor
- condition-info: read-out: Ki
Items are presented alongside their recorded pKi.
# reply with the number alone; pKi is -log10 of concentration in mol/L

Consider the reported pKi for these molecules:
O=S(=O)(c1ccccc1)N1CCCc2cc(OCCCN3CCCCC3)ccc21 : 7.74
c1cc2c(cc1OCCCN1CCCCC1)NCCC2 : 6.89

Consider the additional molecule presented here.
Could you share what pKi was measured for `CS(=O)(=O)N1CCCc2cc(OCCCN3CCCCC3)ccc2C1` , tested on Histamine H3 receptor (Homo sapiens)?
8.54

* * *

- subject-of-test: Histamine H3 receptor (Homo sapiens)
- assay-explanation: Displacement of [3H]N-alpha-methylhistamine from human cloned H3 receptor
- condition-info: read-out: Ki
Items are presented alongside their recorded Ki.
Please reply with the bare figure in nM and do not write the unit itself.

Consider the reported Ki for these compounds:
c1cc2c(cc1OCCCN1CCCCC1)CCN(CC1CCCCC1)CC2 : 0.53
c1cc2c(cc1OCCCN1CCCCC1)CCN(CC1CCCCC1)C2 : 1.01
CS(=O)(=O)N1CCc2ccc(OCCCN3CCCCC3)cc2C1 : 23.8
CC(C)N1CCCc2cc(OCCCN3CCCCC3)ccc2C1 : 0.2
c1ccc(CN2CCCc3cc(OCCCN4CCCCC4)ccc3C2)cc1 : 0.2

For `c1cc(OCCCN2CCCCC2)c2c(c1)N(CC1CCCCC1)CCC2` , what is its reported Ki?
141

For `c1cc2c(c(OCCCN3CCCCC3)c1)CN(CC1CCCCC1)CC2` , what is its reported Ki?
59

For `O=C(c1cccs1)N1CCc2cc(OCCCN3CCCCC3)ccc2C1` , what is its reported Ki?
2.1

* * *

- subject-of-test: Histamine H3 receptor (Homo sapiens, UniProt Q9Y5N1)
- Sequence (Q9Y5N1 whole entry): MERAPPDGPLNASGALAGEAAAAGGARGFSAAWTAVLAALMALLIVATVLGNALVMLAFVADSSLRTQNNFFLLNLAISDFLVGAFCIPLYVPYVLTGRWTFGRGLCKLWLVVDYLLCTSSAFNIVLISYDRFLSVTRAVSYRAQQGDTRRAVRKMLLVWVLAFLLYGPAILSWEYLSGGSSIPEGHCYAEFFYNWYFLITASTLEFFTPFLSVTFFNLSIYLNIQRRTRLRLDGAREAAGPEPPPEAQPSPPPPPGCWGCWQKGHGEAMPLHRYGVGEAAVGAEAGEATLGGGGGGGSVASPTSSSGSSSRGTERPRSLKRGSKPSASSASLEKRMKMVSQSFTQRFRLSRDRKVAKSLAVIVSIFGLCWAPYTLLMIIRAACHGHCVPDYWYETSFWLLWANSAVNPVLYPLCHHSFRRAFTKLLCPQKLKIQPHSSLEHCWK
- assay-explanation: Displacement of [3H]N-alpha-methylhistamine from human cloned H3 receptor
- condition-info: read-out: Ki
pKi: −log10 of the molar value.
recorded-endpoint: pKi

c1cc2c(c(OCCCN3CCCCC3)c1)N(CC1CCCCC1)CCC2 : < 6.52
O=S(=O)(c1ccccc1)N1CCc2cccc(OCCCN3CCCCC3)c2C1 : < 6.52
O=S(=O)(c1ccccc1)N1CCc2c(cccc2OCCCN2CCCCC2)C1 : < 6.52
O=C(c1cccs1)N1CCCc2ccc(OCCCN3CCCCC3)cc21 : 7.65
CCN1CCCc2c(OCCCN3CCCCC3)cccc21 : < 6.52

For `O=C(c1cccs1)N1CCc2c(cccc2OCCCN2CCCCC2)C1` , what is its reported pKi?
< 6.52

For `c1cc2c(cc1OCCCN1CCCCC1)CN(CC1CCCCC1)CC2` , what is its reported pKi?
9.46

For `O=S(=O)(c1ccccc1)N1CCc2ccc(OCCCN3CCCCC3)cc2C1` , what is its reported pKi?
9.28
